These entries and their values trace back to patent EP4613859A1.

Target: human MAL (human) (UniProt P58753)
Test: P3 phage display panning on plate-immobilised MAL, after round 4, NGS
MEASURED ENDPOINT: Population (%)

- BINDER: "SSFREGLWRLLELSKK"
  Population (%): 11.3

1 = HQAFWNRLWAKLKPPT
2 = RGFLSHLRHHLQAKDH
3 = KEVEGWRDALTKVASL
4 = PNLRTKVLNYLMRTKT
5 = YAFTGHLHRYLVQRGV
Input line: Sequence the entries by Population, beginning with the highest number. Arrange the labels as the request states and list them.
Output line: 5, 4, 2, 3, 1
